Target: DNA-PK phosphorylation at serine 2056 (Homo sapiens (Human))
Experiment: DNA-PK phosphorylation at serine 2056 (cellular), bleomycin-treated HCT116 cells, ELISA
Assay type: cell-based
Conditions: cellular DNA-PK phosphorylation at serine 2056, HCT116; read-out: IC50 pDNA-PK
MEASURED METRIC: IC50

Reference set (2 entries):
NC(=O)C(c1ccc(F)c(-c2ncnc3cc(N4CCOCC4)ccc23)c1)c1nnc(Cl)c2sccc12 (centres unmarked) : 5 to 10 µM
Cc1cnc(C(O)c2cc(-c3ncnc4cc(N5CCOCC5)ccc34)c(F)cc2F)c(C)n1 (centres unmarked) : 0.5 to 5 µM

Record summary for CNC(=O)C(c1ccc2nccn2n1)c1cc(-c2ncnc3cc(N4CCOCC4)ccc23)c(F)cc1Cl (centres unmarked) : reported IC50 = 5 to 10 µM

The reported value for COc1ccc(C(O)c2cc(-c3ncnc4cc(N5CCOCC5)ccc34)ccc2F)nn1 (centres unmarked) in terms of IC50 is 0.5 to 5 µM

COc1nccnc1C(O)c1cc(-c2ncnc3cc(N4CCOCC4)cc(F)c23)c(F)cc1Cl (centres unmarked) [Example 250] yielded IC50 of < 0.5 µM

Value of IC50 reported for the molecule Cn1nc(C(C(N)=O)c2ccc(F)c(-c3ncnc4cc(N5CCOCC5)ccc34)c2)ccc1=O (centres unmarked) is 10 to 30 µM

Note to self: IC50 recorded for Cn1c(C(O)c2cc(-c3ncnc4cc(N5CCOCC5)ccc34)ccc2Cl)cccc1=O (centres unmarked) [Example 400] was < 0.5 µM

// IC50 lookup, molecule = COc1nccnc1C(O)c1cc(-c2ncnc3cc(N4CCOCC4)cnc23)c(F)cc1Cl (centres unmarked) [Example 232] , result: 10 to 30 µM
